In this section we review reported IC50 values for a set of molecules.
tested on: P388; assay: Cytotoxicity against mouse P388 cells after 72 hrs by alamar blue assay; type: functional, cell-based; conditions: P388, 72 h

(Q) Name the reported IC50 value associated with the molecule CC(C)[C@@H](C)C[C@H](O)[C@@H](C)[C@H]1CC[C@H]2[C@@H]3[C@@H](O)C=C4C[C@@H](O)CC[C@]4(C)[C@H]3CC[C@]12C
(A) 31.8 µM

(Q) Name the reported IC50 value associated with the molecule CC(C)[C@@H](C)[C@@]1(C)C[C@@H]1[C@@H](C)[C@H]1CC[C@H]2[C@@H]3[C@H](O)C=C4C[C@@H](O)CC[C@]4(C)[C@@]3(O)OC[C@]12C
(A) > 40 µM

(Q) Name the reported IC50 value associated with the molecule CC(C)[C@@H](C)[C@@]1(C)C[C@@H]1[C@@H](C)[C@H]1CC[C@@H]([C@@]23C=C[C@]4(C[C@@H](O)CC[C@]4(C)C2=O)OO3)[C@]1(C)CCO
(A) > 40 µM
